- STUDY SYSTEM: Adenosine transporter 1 (Trypanosoma brucei)
- Sequence (Q9Y0I0 whole entry): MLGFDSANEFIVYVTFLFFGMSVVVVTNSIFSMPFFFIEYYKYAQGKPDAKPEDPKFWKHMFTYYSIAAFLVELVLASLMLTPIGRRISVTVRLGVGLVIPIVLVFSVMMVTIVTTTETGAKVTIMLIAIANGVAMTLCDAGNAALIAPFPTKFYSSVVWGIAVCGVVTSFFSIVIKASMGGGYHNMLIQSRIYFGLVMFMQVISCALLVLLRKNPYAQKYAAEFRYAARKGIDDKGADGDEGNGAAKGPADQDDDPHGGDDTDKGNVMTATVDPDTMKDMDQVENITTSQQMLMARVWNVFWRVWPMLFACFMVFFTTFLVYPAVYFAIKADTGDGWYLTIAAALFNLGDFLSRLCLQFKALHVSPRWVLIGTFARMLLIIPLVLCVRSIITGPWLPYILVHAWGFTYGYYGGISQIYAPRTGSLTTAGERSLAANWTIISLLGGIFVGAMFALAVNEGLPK
ASSAY ENDPOINT: Ki (µM)

compound=Nc1nc(N)nc(Nc2ccc(CCO[N+](=O)[O-])cc2)n1 censoring_qualifier== recorded_measurement=0.2
compound="CC(=O)NC(C(=O)NC[C@H]1OC(n2cnc3c(N)ncnc32)[C@H](O)[C@@H]1O)C(C)(C)SN=O (some centres not stated)" censoring_qualifier== recorded_measurement=3.47
compound=Nc1ncnc2c1ncn2[C@@H]1O[C@H](CO[N+](=O)[O-])[C@@H](O)[C@H]1O censoring_qualifier== recorded_measurement=12.3
compound=NCCS[As](SCCN)c1ccc(Nc2nc(N)nc(N)n2)cc1 censoring_qualifier== recorded_measurement=22.9
compound=Nc1ncnc2c1ncn2CCO[N+](=O)[O-] censoring_qualifier== recorded_measurement=1.9
compound="CC(=O)NC(C(=O)Nc1ccc(Nc2nc(N)nc(N)n2)cc1)C(C)(C)SN=O (configuration not stated)" censoring_qualifier== recorded_measurement=0.58
compound=O=[N+]([O-])OCc1ccccc1 censoring_qualifier=> recorded_measurement=1000
